B1: tRNA (parent)
chain: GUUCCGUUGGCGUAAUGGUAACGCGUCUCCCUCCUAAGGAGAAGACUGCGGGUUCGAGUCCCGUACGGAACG

Variants of: B1
Experiment: yeast fitness relative to wild type (ratio to wild type); higher = fitter; tRNA-Arg(CCU), competitive growth, 37 C, YPD
Fewer inactive variants are shown than the library holds.
Listing: yeast fitness of selected variants

Illustrative cases are given below, each with its answer.
In: Dear colleague, please send me the reported yeast fitness for G12A U16C C27A U54A when you can.
Out: ≤ 0.5

In: Dear colleague, please send me the reported yeast fitness for G12A A15U G17A when you can.
Out: ≤ 0.5

In: Dear colleague, please send me the reported yeast fitness for C34A A42U G68A when you can.
Out: ≤ 0.5

In: Dear colleague, please send me the reported yeast fitness for G44A C66G when you can.
Out: 0.641

In: Dear colleague, please send me the reported yeast fitness for A21C C46U G67A when you can.
Out: 0.619

In: Dear colleague, please send me the reported yeast fitness for U19G U28A when you can.
Out: 0.613

In: Dear colleague, please send me the reported yeast fitness for C24G U54G C55G C62U when you can.
Out: ≤ 0.5

In: Dear colleague, please send me the reported yeast fitness for G41C A57U when you can.
Out: 0.661

New cases:
In: Dear colleague, please send me the reported yeast fitness for C24G A37U C55U G67C when you can.
Out: ≤ 0.5

In: Dear colleague, please send me the reported yeast fitness for A14G C22U A37G A70C when you can.
Out: ≤ 0.5

In: Dear colleague, please send me the reported yeast fitness for U7G A37G C55G when you can.
Out: ≤ 0.5
